Experiment: Half life in C57BL/6 mouse at 20 mg/kg, po by LC-MS/MS analysis
Type: ADME, organism-based
Details: in vivo
measured.property: half-life (min)
Please reply with the bare figure in min and do not write the unit itself.

Lab note: CC(C)(O)c1coc(S(=O)(=O)NC(=O)Nc2c3c(cc4c2CCC4)CCC3)c1 gave half-life of 79.2

---

Assay: MRT (0 to infinity) in ICR mouse at 5 mg/kg, iv by LC-MS/MS analysis
Type: ADME, organism-based
Details: in vivo
measured.property: MRT inf (h)
Please reply with the bare figure in h and do not write the unit itself.

Lab note: CN(C)Cc1ccc(S(=O)(=O)NC(=O)Nc2c3c(cc4c2CCC4)CCC3)cc1 gave MRT inf of 5.3

---

Assay: Half life in ICR mouse at 5 mg/kg, iv by LC-MS/MS analysis
Type: ADME, organism-based
Details: in vivo
measured.property: half-life
Write the numeric value and append its unit.

Lab note: CN(C)Cc1ccc(S(=O)(=O)NC(=O)Nc2c3c(cc4c2CCC4)CCC3)cc1 gave half-life of 4.01 h

---

Biological target: NACHT, LRR and PYD domains-containing protein 3 (Mus musculus)
Assay: Inhibition of NLRP3 inflammasome in mouse […] cells assessed as inhibition of LPS/ATP-induced IL-1 beta secretion primed with LPS for 4.5 hs followed by incubation with compound for 30 mins and later stimulation with ATP for 30 mins by ELISA
pIC50: −log10 of the molar value.
Please enter class 1 where pIC50 is greater than or equal to 6, and class 0 where it is lower.

Consider the worked cases shown below.
COC1CN(Cc2cccc(S(=O)(=O)NC(=O)Nc3c4c(cc5c3CCC5)CCC4)c2)C1 ... class 0
CCN(C)Cc1ccc(S(=O)(=O)NC(=O)Nc2c3c(cc4c2CCC4)CCC3)cc1 ... class 1
CCCN(C)Cc1ccc(S(=O)(=O)NC(=O)Nc2c3c(cc4c2CCC4)CCC3)cc1 ... class 0
Cc1cccc(C)c1NC(=O)NS(=O)(=O)c1ccc(CN(C)C)cc1 ... class 0
CN(C)Cc1cc(S(=O)(=O)NC(=O)Nc2c3c(cc4c2CCC4)CCC3)ccn1 ... class 0
CC(C)(O)c1coc(S(=O)(=O)NC(=O)Nc2c3c(cc4c2CCC4)CCC3)c1 ... class 1
CC(C)(O)c1coc(S(=O)(=O)NC(=O)Nc2c3c(c(-c4cccc(C#N)c4)c4c2CCC4)CCC3)c1 ... class 0
CNC(=O)c1cccc(S(=O)(=O)NC(=O)Nc2c3c(cc4c2CCC4)CCC3)c1 ... class 0

Kindly consider the entry below.
Determine whether this compound has pIC50 no lower than 6: CN(C)Cc1ccc(S(=O)(=O)NC(=O)Nc2c3c(cc4c2CCC4)CCC3)cc1
class 1

---

Test: Tmax in ICR mouse at 5 mg/kg, iv by LC-MS/MS analysis
Type: ADME, organism-based
Details: in vivo
measured.property: Tmax (min)
Please reply with the bare figure in min and do not write the unit itself.

Lab note: CN(C)Cc1ccc(S(=O)(=O)NC(=O)Nc2c3c(cc4c2CCC4)CCC3)cc1 gave Tmax of 4.98

---

Experiment: MRT (0 to infinity) in ICR mouse at 10 mg/kg, po by LC-MS/MS analysis
Format: ADME, organism-based
Details: in vivo
measured.property: MRT inf (h)
Please reply with the bare figure in h and do not write the unit itself.

Lab note: CN(C)Cc1ccc(S(=O)(=O)NC(=O)Nc2c3c(cc4c2CCC4)CCC3)cc1 gave MRT inf of 4.79

---

Documented pIC50 across a set of compounds
Biological target: NACHT, LRR and PYD domains-containing protein 3 (Mus musculus)
Assay: Inhibition of NLRP3 inflammasome in mouse […] cells assessed as inhibition of LPS/ATP-induced IL-1 beta secretion primed with LPS for 4.5 hs followed by incubation with compound for 30 mins and later stimulation with ATP for 30 mins by ELISA
Please note pIC50 is a logarithmic value: minus log10 of concentration in mol/L. Answer with that number alone.

Look over these answered cases.
O=C(Nc1c2c(cc3c1CCC3)CCC2)NS(=O)(=O)c1ccc(CN2CCCCC2)cc1 ... 5.90
CN(C)Cc1ccc(S(=O)(=O)NC(=O)Nc2c(-c3ccccc3)cccc2-c2ccccc2)cc1 ... 5.83
CC(C)c1cccc(C(C)C)c1NC(=O)NS(=O)(=O)c1ccc(CN(C)C)cc1 ... 6.86

Now let's try a different one.
Lab note: CN(C)C(=O)c1cccc(S(=O)(=O)NC(=O)Nc2c3c(cc4c2CCC4)CCC3)c1 gave pIC50 of 6.16

---

Test: Cmax in ICR mouse at 10 mg/kg, po by LC-MS/MS analysis
Format: ADME, organism-based
Parameters: dose 10 mg/kg, route po
Details: in vivo
measured.property: Cmax (ng/mL)
Please reply with the bare figure in ng/mL and do not write the unit itself.

Lab note: CN(C)Cc1ccc(S(=O)(=O)NC(=O)Nc2c3c(cc4c2CCC4)CCC3)cc1 gave Cmax of 33900

---

Experiment: AUC (0 to infinity) in ICR mouse at 5 mg/kg, iv by LC-MS/MS analysis
Format: ADME, organism-based
Parameters: dose 5 mg/kg, route iv
Conditions: in vivo
measured.property: AUC(0-inf) (µg·h/mL)
Please reply with the bare figure in µg·h/mL and do not write the unit itself.

Lab note: CN(C)Cc1ccc(S(=O)(=O)NC(=O)Nc2c3c(cc4c2CCC4)CCC3)cc1 gave AUC(0-inf) of 130

---

Assay: Oral bioavailability in C57BL/6 mouse at 20 mg/kg by LC-MS/MS analysis
Assay type: ADME, organism-based
Conditions: in vivo
measured.property: bioavailability

Lab note: CC(C)(O)c1coc(S(=O)(=O)NC(=O)Nc2c3c(cc4c2CCC4)CCC3)c1 gave bioavailability of 85.2%

---

Assay: Cmax in ICR mouse at 5 mg/kg, iv by LC-MS/MS analysis
Format: ADME, organism-based
Set-up: dose 5 mg/kg, route iv
Details: in vivo
measured.property: Cmax (µg/mL)
Please reply with the bare figure in µg/mL and do not write the unit itself.

Lab note: CN(C)Cc1ccc(S(=O)(=O)NC(=O)Nc2c3c(cc4c2CCC4)CCC3)cc1 gave Cmax of 22.6

---

Experiment: AUC (0 to infinity) in ICR mouse at 10 mg/kg, po by LC-MS/MS analysis
Format: ADME, organism-based
Set-up: dose 10 mg/kg, route po
Conditions: in vivo
measured.property: AUC(0-inf) (µg·h/mL)
Please reply with the bare figure in µg·h/mL and do not write the unit itself.

Lab note: CN(C)Cc1ccc(S(=O)(=O)NC(=O)Nc2c3c(cc4c2CCC4)CCC3)cc1 gave AUC(0-inf) of 222

---

Molecular target: NACHT, LRR and PYD domains-containing protein 3 (Mus musculus)
Experiment: Inhibition of NLRP3 inflammasome in mouse […] cells assessed as inhibition of LPS/ATP-induced IL-1 beta secretion primed with LPS for 4.5 hs followed by incubation with compound for 30 mins and later stimulation with ATP for 30 mins by ELISA
measured.property: pIC50
Please note pIC50 is a logarithmic value: minus log10 of concentration in mol/L. Answer with that number alone.

Look over these answered cases.
CCCCCN(C)Cc1ccc(S(=O)(=O)NC(=O)Nc2c3c(cc4c2CCC4)CCC3)cc1 ... 5.76
COC(=O)c1ccc(-c2c3c(c(NC(=O)NS(=O)(=O)c4cc(C(C)(C)O)co4)c4c2CCC4)CCC3)cc1 ... 5.95
CN(C)Cc1cccc(S(=O)(=O)NC(=O)Nc2c3c(cc4c2CCC4)CCC3)c1 ... 6.77
CN(C)Cc1cc(F)cc(S(=O)(=O)NC(=O)Nc2c3c(cc4c2CCC4)CCC3)c1 ... 6.14
O=C(Nc1c2c(cc3c1CCC3)CCC2)NS(=O)(=O)c1ccc(CN2CCOCC2)cc1 ... 5.43

Now let's try a different one.
Lab note: CC(C)c1cccc(C(C)C)c1CC(=O)NS(=O)(=O)c1ccc(CN(C)C)cc1 gave pIC50 of 5.73

---

Target: NACHT, LRR and PYD domains-containing protein 3 (Mus musculus, UniProt Q8R4B8)
Sequence (Q8R4B8 whole entry, the tested form may be a part): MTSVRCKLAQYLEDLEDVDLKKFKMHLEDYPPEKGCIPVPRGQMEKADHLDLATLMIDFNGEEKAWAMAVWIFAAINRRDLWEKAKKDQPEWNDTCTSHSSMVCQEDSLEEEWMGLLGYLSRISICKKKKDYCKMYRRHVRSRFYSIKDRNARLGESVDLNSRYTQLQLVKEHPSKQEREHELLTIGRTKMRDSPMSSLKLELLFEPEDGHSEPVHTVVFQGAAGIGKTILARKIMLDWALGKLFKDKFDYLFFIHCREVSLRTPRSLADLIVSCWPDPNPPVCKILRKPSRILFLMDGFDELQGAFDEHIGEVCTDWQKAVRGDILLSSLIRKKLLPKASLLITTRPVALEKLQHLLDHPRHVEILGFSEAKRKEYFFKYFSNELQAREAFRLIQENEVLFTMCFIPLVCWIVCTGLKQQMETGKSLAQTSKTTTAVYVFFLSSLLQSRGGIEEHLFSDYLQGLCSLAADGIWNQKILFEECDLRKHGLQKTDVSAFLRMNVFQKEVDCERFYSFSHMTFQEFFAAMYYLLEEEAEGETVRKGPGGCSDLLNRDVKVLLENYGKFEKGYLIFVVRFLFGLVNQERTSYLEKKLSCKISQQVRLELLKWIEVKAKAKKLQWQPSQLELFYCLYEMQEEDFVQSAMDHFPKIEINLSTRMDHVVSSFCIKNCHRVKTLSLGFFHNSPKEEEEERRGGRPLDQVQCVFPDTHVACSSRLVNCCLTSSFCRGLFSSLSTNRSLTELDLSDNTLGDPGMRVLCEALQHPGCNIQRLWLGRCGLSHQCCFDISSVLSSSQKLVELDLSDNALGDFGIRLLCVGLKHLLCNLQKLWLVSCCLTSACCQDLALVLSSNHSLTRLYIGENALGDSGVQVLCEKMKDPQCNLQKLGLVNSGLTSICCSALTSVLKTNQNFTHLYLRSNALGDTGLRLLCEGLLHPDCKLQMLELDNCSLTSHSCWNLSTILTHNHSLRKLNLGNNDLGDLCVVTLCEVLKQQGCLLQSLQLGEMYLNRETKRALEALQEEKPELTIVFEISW
Assay: Inhibition of NLRP3 inflammasome in mouse […] cells assessed as inhibition of LPS/ATP-induced IL-1 beta secretion primed with LPS for 4.5 hs followed by incubation with compound for 30 mins and later stimulation with ATP for 30 mins by ELISA
measured.property: IC50

CN1CCN(Cc2ccc(S(=O)(=O)NC(=O)Nc3c4c(cc5c3CCC5)CCC4)cc2)CC1 ... > 10 µM
Cc1cc(C)cc(NC(=O)NS(=O)(=O)c2ccc(CN(C)C)cc2)c1 ... > 10 µM
CC(=O)c1cccc(S(=O)(=O)NC(=O)Nc2c3c(cc4c2CCC4)CCC3)c1 ... > 20 µM
CC(C)(O)c1cccc(S(=O)(=O)NC(=O)Nc2c3c(cc4c2CCC4)CCC3)c1 ... > 20 µM

Now let's try a different one.
Lab note: CCCCN(C)Cc1ccc(S(=O)(=O)NC(=O)Nc2c3c(cc4c2CCC4)CCC3)cc1 gave IC50 of > 10 µM
